Experiment notes: Metabolic stability in rat liver S9 fraction
Experimental setup: Sprague-Dawley
For each of the compounds below, state its half-life.
Report the figure in min without appending any unit label.

# input compound: Cc1ccccc1C(=O)N[C@H](C)c1cccc2ccccc12 ; wanted: its half-life
17

Entry to check: C[C@@H](NC(=O)c1ccccc1CCC(=O)NNC(=O)CCl)c1cccc2ccccc12
16

Another compound: CC(C)NCC(O)COc1cccc2ccccc12 (stereo not shown) [propranolol, reference compound]
3

Follow-up entry: COC(=O)/C=C/C(=O)NNC(=O)CCc1ccccc1C(=O)N[C@H](C)c1cccc2ccccc12
31

---

Experiment notes: in vitro
Experimental setup: African green monkey, Percent Cytotoxicity (Neutral Red), Vero E6; SARS2-735; 1 µM
Measured metric: cytotoxicity at 1 µM (%)
API: value field is a number in %; no unit string.

Which measured cytotoxicity at 1 µM value corresponds to COC(=O)/C=C/C(=O)NNC(=O)CCc1ccccc1C(=O)N[C@H](C)c1cccc2ccccc12 [Compound 7] ?
3.8

---

Target desc: SARS-CoV-2 PLpro (Severe acute respiratory syndrome coronavirus 2)
Experiment notes: biochemical
Experimental setup: PLpro 50 nM, Ub-rhodamine110
Measured metric: IC50 (nM)
// return numeric value only (unit: nM, not printed)

Suppose we examine the compound C[C@@H](NC(=O)c1ccccc1CCC(=O)NNC(=O)CCl)c1cccc2ccccc12 [Compound 9] ; what IC50 value has been reported?
1960

---

Test system: SARS-CoV-2 isolate USA-WA1/2020
Experimental setup: read-out: cytopathic effect, % cell viability; [inhibitor] 2.08 uM; duplicate wells; 2.08 µM
Measured metric: inhibition (%)
Give just the numeric value; % need not be written.

Record request: inhibition value, item Cc1ccccc1C(=O)N[C@H](C)c1cccc2ccccc12
7.39

Request: C[C@@H](NC(=O)c1ccccc1CCC(=O)NNC(=O)CCl)c1cccc2ccccc12
12

Thanks! And COC(=O)/C=C/C(=O)NNC(=O)CCc1ccccc1C(=O)N[C@H](C)c1cccc2ccccc12 ?
65

Would you mind doing COC(=O)CCc1ccccc1C(=O)N[C@H](C)c1cccc2ccccc12 as well?
8.63

// repeat for C[C@@H](NC(=O)c1ccccc1CCC(=O)NN)c1cccc2ccccc12 and report
7.12

Next entry: CC(=O)Nc1ccc(CCC(=O)NNC(=O)CCl)c(C(=O)N[C@H](C)c2cccc3ccccc23)c1
1.32

Queued: C[C@@H](NC(=O)c1ccccc1CCC(=O)NNC(=O)CC#N)c1cccc2ccccc12
4.7

Proceed to COC(=O)/C=C/C(=O)NNC(=O)CCc1ccc(NC(C)=O)cc1C(=O)N[C@H](C)c1cccc2ccccc12
0.9

---

Field: remaining activity at 200 µM. Provide a value for each of the molecules that follow.
Target desc: PLpro from SARS-CoV-2 (Severe acute respiratory syndrome coronavirus 2)
Experiment notes: biochemical
Type: biochemical
Experimental setup: 0.5 h, inhibitor 200.00 uM
I only need the number, in %, no unit after it.

Fill in: remaining activity at 200 µM of C[C@@H](NC(=O)c1ccccc1CCC(=O)NNC(=O)CC#N)c1cccc2ccccc12 [Compound 11] is ___
5.83

How about this molecule: C#CC(=O)NNC(=O)CCc1ccccc1C(=O)N[C@H](C)c1cccc2ccccc12 [Compound 12]
2.39

Next: Cc1ccccc1C(=O)N[C@H](C)c1cccc2ccccc12 [Compound 14]
40.8

What do you get for COC(=O)/C=C/C(=O)NNC(=O)CCc1ccccc1C(=O)N[C@H](C)c1cccc2ccccc12 [Compound 7] ?
4.35
